Assay read-out pIC50; system under study: High affinity nerve growth factor receptor (Homo sapiens, UniProt P04629).
Sequence (P04629 whole entry): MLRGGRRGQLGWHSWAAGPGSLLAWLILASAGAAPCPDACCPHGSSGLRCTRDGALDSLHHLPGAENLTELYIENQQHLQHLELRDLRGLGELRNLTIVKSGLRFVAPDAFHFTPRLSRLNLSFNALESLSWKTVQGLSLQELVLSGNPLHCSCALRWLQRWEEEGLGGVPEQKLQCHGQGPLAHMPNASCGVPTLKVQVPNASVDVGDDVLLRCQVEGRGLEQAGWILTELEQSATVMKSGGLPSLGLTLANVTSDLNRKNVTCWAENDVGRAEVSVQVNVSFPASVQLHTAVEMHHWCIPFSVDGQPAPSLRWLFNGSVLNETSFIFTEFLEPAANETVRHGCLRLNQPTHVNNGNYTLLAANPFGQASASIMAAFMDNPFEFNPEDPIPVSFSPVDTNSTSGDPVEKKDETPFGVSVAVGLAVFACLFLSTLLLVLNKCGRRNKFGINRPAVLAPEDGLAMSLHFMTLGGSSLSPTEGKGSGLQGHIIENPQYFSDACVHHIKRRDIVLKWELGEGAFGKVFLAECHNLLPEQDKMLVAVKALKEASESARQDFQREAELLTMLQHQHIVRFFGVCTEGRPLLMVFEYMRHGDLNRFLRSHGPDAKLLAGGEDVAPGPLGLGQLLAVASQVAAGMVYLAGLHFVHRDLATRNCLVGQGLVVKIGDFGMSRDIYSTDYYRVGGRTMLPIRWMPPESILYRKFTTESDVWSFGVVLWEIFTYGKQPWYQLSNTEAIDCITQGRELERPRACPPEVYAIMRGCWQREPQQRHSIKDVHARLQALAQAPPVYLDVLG
pIC50: −log10 of the molar value.

Which pIC50 value belongs to Nc1nn2ccc(N3CCC[C@@H]3c3cc(F)ccc3F)nc2c1Br ? > 7.60

Repeat with NC(=O)c1c(N)nn2ccc(N3C[C@@H](O)C[C@@H]3c3cc(F)ccc3F)nc12 > 7.60

Repeat with CCOC(=O)c1c(N)nn2ccc(N3C[C@@H](O)CC3c3cc(F)ccc3F)nc12 (some centres not stated) > 6.30

Repeat with Nc1nn2ccc(N3CCC[C@@H]3c3cc(F)ccc3F)nc2c1C(=O)NC1CCC(O)CC1 (some centres not stated) > 9.00

Repeat with Nc1nn2ccc(N3CCC[C@@H]3c3cc(F)ccc3F)nc2c1C(=O)NOCCO > 9.00

Repeat with N#Cc1c(N)nn2ccc(N3C[C@@H](F)C[C@@H]3c3cc(F)ccc3F)nc12 > 9.00

Repeat with CC1(C)OCC(CONC(=O)c2c(N)nn3ccc(N4CCC[C@@H]4c4cc(F)ccc4F)nc23)O1 (some centres not stated) > 9.00
